# Test system: Fusarium sp.
# experimental_details: Marine-derived fungi growth inhibition (OD405)
# Format: cell-based
# experimental_conditions: Fusarium, 120 h, 5 days, 26 °C
Rule: IC50 below 7 µM gives YES. Equal to or above 7 µM gives NO.

O=C(O)CCCCCCCCCC[P+](c1ccccc1)(c1ccccc1)c1ccccc1 [Compound 19]; NO
CCCCCCCCCC[P+](c1ccccc1)(c1ccccc1)c1ccccc1 [Compound 10]; NO
CCCCCCCCCCCCCCCCCC[P+](c1ccccc1)(c1ccccc1)c1ccccc1 [Compound 17]; NO
c1ccc([P+](CCCCCCCCCCCC[P+](c2ccccc2)(c2ccccc2)c2ccccc2)(c2ccccc2)c2ccccc2)cc1 [Compound 20]; YES
CCCCCCCCCCC[P+](c1ccccc1)(c1ccccc1)c1ccccc1 [Compound 11]; YES
CCCCCCCCCCCCCCCCCCC[P+](c1ccccc1)(c1ccccc1)c1ccccc1 [Compound 18]; NO
CCCCCCCCCCCCCCCC[P+](c1ccccc1)(c1ccccc1)c1ccccc1 [Compound 16]; NO
CCCCCCCCCCCC[P+](c1ccccc1)(c1ccccc1)c1ccccc1 [Compound 12]; YES

----------
# System: Cellulophaga lytica CECT 5014
# experimental_details: Marine bacteria growth inhibition (broth microdilution, OD625)
# Format: cell-based
# experimental_conditions: Cellulophaga lytica, CECT5014; growth inhibition, 24 h, 30 °C, three replicates; read-out: IC50 C. lytica
# Protocol: All the biological assays were run by triplicate. […] For the active products, serial dilutions were performed to calculate the half-maximal inhibitory concentrations (IC50) or the minimal inhibitory concentrations (MIC). Unless otherwise stated, the test concentrations were 100, 50, 25, 10, 5, 2.5, 1, 0.5 and 0.1 μM. […] Growth inhibition was assessed in Marine Broth (Conda) according to CLSI guidelines for broth microdilution susceptibility testing. […]
List of IC50 values.
metric: IC50 (µM)

CCCCCCCCCCCCCC[P+](c1ccccc1)(c1ccccc1)c1ccccc1 [Compound 14]; 2
CCCCCCCCCCCCC[P+](c1ccccc1)(c1ccccc1)c1ccccc1 [Compound 13]; 1.7
c1ccc([P+](CCCCCCCCCCCC[P+](c2ccccc2)(c2ccccc2)c2ccccc2)(c2ccccc2)c2ccccc2)cc1 [Compound 20]; 1.1
CCCCCCCCCCCCCCCCCC[P+](c1ccccc1)(c1ccccc1)c1ccccc1 [Compound 17]; 11.3
CCCCCCCCC[P+](c1ccccc1)(c1ccccc1)c1ccccc1 [Compound 9]; 2.6
CCCCCCCCCC[P+](c1ccccc1)(c1ccccc1)c1ccccc1 [Compound 10]; 2.6
CCCCN[P+](c1ccccc1)(c1ccccc1)c1ccccc1 [Compound 5]; 41.8
CCCCCCCCCCCCCCCCCCC[P+](c1ccccc1)(c1ccccc1)c1ccccc1 [Compound 18]; 5.3
C/C=C/C[P+](c1ccccc1)(c1ccccc1)c1ccccc1 [Compound 3]; 73.2
CCCCCCCCCCCCCCCC[P+](c1ccccc1)(c1ccccc1)c1ccccc1 [Compound 16]; 1.5
CCCCCCCCCCC[P+](c1ccccc1)(c1ccccc1)c1ccccc1 [Compound 11]; 1.1
CCCCCCCCCCCCCCC[P+](c1ccccc1)(c1ccccc1)c1ccccc1 [Compound 15]; 1.9
CCCCCCC[P+](c1ccccc1)(c1ccccc1)c1ccccc1 [Compound 8, heptyl triphenylphosphonium bromide]; 20

----------
Parameter: IC50 A. salina (LC50). Scope: all listed entries.
# Test system: Artemia salina nauplii
# experimental_details: in vivo
# experimental_conditions: instar I nauplii, 24 h, 28 °C
# Description: All the biological assays were run by triplicate. […] For the active products, serial dilutions were performed to calculate the half-maximal inhibitory concentrations (IC50) or the minimal inhibitory concentrations (MIC). […] Artemia salina cysts (INVE Aquaculture, Ghent, Belgium) were hatched in brackish water (30 ‰ salinity) at 28 °C with aeration and under constant light. […] The number of dead and alive individuals was recorded after 24 h of incubation at 28 °C and 24-hour photoperiod.
metric: IC50 A. salina (LC50)

C/C=C/C[P+](c1ccccc1)(c1ccccc1)c1ccccc1 [Compound 3]; >100000 nM
CCCCCCCCCCCCCCCC[P+](c1ccccc1)(c1ccccc1)c1ccccc1 [Compound 16]; 1800 nM
COC(=O)CCC[P+](c1ccccc1)(c1ccccc1)c1ccccc1 [Compound 2]; >100000 nM
CCCCCCCCCCCCCC[P+](c1ccccc1)(c1ccccc1)c1ccccc1 [Compound 14]; 1800 nM
CCCCCCCCCC[P+](c1ccccc1)(c1ccccc1)c1ccccc1 [Compound 10]; 1400 nM
CCCCN[P+](c1ccccc1)(c1ccccc1)c1ccccc1 [Compound 5]; 17200 nM
BrC(Br)[P+](c1ccccc1)(c1ccccc1)c1ccccc1 [Compound 1]; >100000 nM
CCCCCCCCCCCCCCCCCCC[P+](c1ccccc1)(c1ccccc1)c1ccccc1 [Compound 18]; <500 nM
CCCCCCCCCCCCCCCCCC[P+](c1ccccc1)(c1ccccc1)c1ccccc1 [Compound 17]; <500 nM
CCCCCCCCCCCCC[P+](c1ccccc1)(c1ccccc1)c1ccccc1 [Compound 13]; 900 nM

----------
# Tested on: C. violaceum CVO26
# experimental_details: C. violaceum CVO26 growth inhibition (OD625)
# Assay type: cell-based
# experimental_conditions: Chromobacterium violaceum, CVO26, 18 h, read-out: IC50 (Growth inhibition)
pIC50: −log10 of the molar value.
# Lookup of reported pIC50 keyed by entry
metric: pIC50

CCCCCCCCCCCCCCCCCC[P+](c1ccccc1)(c1ccccc1)c1ccccc1; 5.15
CCCCCCCCCCCC[P+](c1ccccc1)(c1ccccc1)c1ccccc1; 4.99
CCCCCCCCCC[P+](c1ccccc1)(c1ccccc1)c1ccccc1; 4.92
c1ccc([P+](CCCCCCCCCCCC[P+](c2ccccc2)(c2ccccc2)c2ccccc2)(c2ccccc2)c2ccccc2)cc1; 4.89
CCCCCCCCCCCCCC[P+](c1ccccc1)(c1ccccc1)c1ccccc1; 5.64
CCCCCCCCCCCCC[P+](c1ccccc1)(c1ccccc1)c1ccccc1; 5.49

----------
Each entry below carries its reported IC50.
# Test system: V. harveyi BB721 (luxO::Tn5lacZ)
# experimental_details: Quorum sensing bioassay: bioluminescence
# Type: cell-based
# experimental_conditions: Vibrio harveyi, 18 h, read-out: IC50 Luminescence BB721
metric: IC50

C/C=C/C[P+](c1ccccc1)(c1ccccc1)c1ccccc1; 348 µM
CCCCN[P+](c1ccccc1)(c1ccccc1)c1ccccc1; > 500 µM
BrCCCC[P+](c1ccccc1)(c1ccccc1)c1ccccc1; > 500 µM
CCCCC[P+](c1ccccc1)(c1ccccc1)c1ccccc1; 276 µM

----------
# Test system: Vibrio anguillarum CECT 4347
# experimental_details: Marine bacteria growth inhibition (broth microdilution, OD625)
# Type: cell-based
# experimental_conditions: Vibrio anguillarum, CECT4347; growth inhibition, 24 h, 30 °C, three replicates; read-out: IC50 V. anguillarum
# Fulfilled = IC50 below 20 µM (exclusive); Not fulfilled = IC50 at/above 20 µM

CCCCCCCCCCCCCCCCCCC[P+](c1ccccc1)(c1ccccc1)c1ccccc1 [Compound 18]; Not fulfilled
COC(=O)CCC[P+](c1ccccc1)(c1ccccc1)c1ccccc1 [Compound 2]; Not fulfilled
c1ccc([P+](CCCCCCCCCCCC[P+](c2ccccc2)(c2ccccc2)c2ccccc2)(c2ccccc2)c2ccccc2)cc1 [Compound 20]; Fulfilled
O=S(=O)([O-])CCCC[P+](c1ccccc1)(c1ccccc1)c1ccccc1 [Compound 6]; Not fulfilled
CCCCCCCCC[P+](c1ccccc1)(c1ccccc1)c1ccccc1 [Compound 9]; Not fulfilled
CCCCCCCCCCCCCCCCCC[P+](c1ccccc1)(c1ccccc1)c1ccccc1 [Compound 17]; Not fulfilled
CCCCCCCCCCCCCCC[P+](c1ccccc1)(c1ccccc1)c1ccccc1 [Compound 15]; Fulfilled
CCCCCCCCCCCCCC[P+](c1ccccc1)(c1ccccc1)c1ccccc1 [Compound 14]; Fulfilled
CCCCCCCCCCCCC[P+](c1ccccc1)(c1ccccc1)c1ccccc1 [Compound 13]; Fulfilled
CCCCCCC[P+](c1ccccc1)(c1ccccc1)c1ccccc1 [Compound 8, heptyl triphenylphosphonium bromide]; Not fulfilled
C/C=C/C[P+](c1ccccc1)(c1ccccc1)c1ccccc1 [Compound 3]; Not fulfilled
CCCCCCCCCCCCCCCC[P+](c1ccccc1)(c1ccccc1)c1ccccc1 [Compound 16]; Fulfilled
BrCCCC[P+](c1ccccc1)(c1ccccc1)c1ccccc1 [Compound 4]; Not fulfilled
CCCCCCCCCCC[P+](c1ccccc1)(c1ccccc1)c1ccccc1 [Compound 11]; Fulfilled
CCCCC[P+](c1ccccc1)(c1ccccc1)c1ccccc1 [Compound 7]; Not fulfilled
O=C(O)CCCCCCCCCC[P+](c1ccccc1)(c1ccccc1)c1ccccc1 [Compound 19]; Not fulfilled
CCCCN[P+](c1ccccc1)(c1ccccc1)c1ccccc1 [Compound 5]; Not fulfilled
CCCCCCCCCC[P+](c1ccccc1)(c1ccccc1)c1ccccc1 [Compound 10]; Fulfilled
BrC(Br)[P+](c1ccccc1)(c1ccccc1)c1ccccc1 [Compound 1]; Not fulfilled

----------
# Test system: Cobetia marina CECT 4278
# experimental_details: Marine bacteria growth inhibition (broth microdilution, OD625)
# Format: cell-based
# experimental_conditions: Cobetia marina, CECT4278, 24 h, read-out: IC50 C. marina
metric: IC50 (µM)

CCCCCCCCCCCC[P+](c1ccccc1)(c1ccccc1)c1ccccc1; 5.1

Data credit: paper PMC4405350
